target-of-assay: T1, 4H3162-bN
T1 chain: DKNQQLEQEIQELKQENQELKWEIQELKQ
experiment: two-hybrid library CCNG1;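 note: natural log of median RNA to DNA barcode read ratio; higher means stronger binding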
observable: interaction score
Reply with just the number.

Solved cases below.
binder	reported-measurement
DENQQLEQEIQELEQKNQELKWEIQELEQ [4H1081-bN]	-1.74
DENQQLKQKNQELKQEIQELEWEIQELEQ [4H1985-bN]	-1.41
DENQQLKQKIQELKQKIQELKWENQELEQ [4H1899-bN]	-0.75
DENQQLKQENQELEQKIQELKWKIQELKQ [4H1710-bN]	0.233
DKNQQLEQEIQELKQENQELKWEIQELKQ [4H3162-bN]	0.979
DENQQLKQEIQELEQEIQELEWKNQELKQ [4H1544-bN]	-1.96

What does the data say about its interaction score? Entry: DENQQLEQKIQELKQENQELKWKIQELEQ [4H1373-bN]
-0.675

And what about the binder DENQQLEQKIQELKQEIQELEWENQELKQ [4H1348-bN] ?
-0.0481
